# measuredOn: Tdp1 (Homo sapiens, UniProt Q9NUW8)
# Sequence (Q9NUW8 whole entry): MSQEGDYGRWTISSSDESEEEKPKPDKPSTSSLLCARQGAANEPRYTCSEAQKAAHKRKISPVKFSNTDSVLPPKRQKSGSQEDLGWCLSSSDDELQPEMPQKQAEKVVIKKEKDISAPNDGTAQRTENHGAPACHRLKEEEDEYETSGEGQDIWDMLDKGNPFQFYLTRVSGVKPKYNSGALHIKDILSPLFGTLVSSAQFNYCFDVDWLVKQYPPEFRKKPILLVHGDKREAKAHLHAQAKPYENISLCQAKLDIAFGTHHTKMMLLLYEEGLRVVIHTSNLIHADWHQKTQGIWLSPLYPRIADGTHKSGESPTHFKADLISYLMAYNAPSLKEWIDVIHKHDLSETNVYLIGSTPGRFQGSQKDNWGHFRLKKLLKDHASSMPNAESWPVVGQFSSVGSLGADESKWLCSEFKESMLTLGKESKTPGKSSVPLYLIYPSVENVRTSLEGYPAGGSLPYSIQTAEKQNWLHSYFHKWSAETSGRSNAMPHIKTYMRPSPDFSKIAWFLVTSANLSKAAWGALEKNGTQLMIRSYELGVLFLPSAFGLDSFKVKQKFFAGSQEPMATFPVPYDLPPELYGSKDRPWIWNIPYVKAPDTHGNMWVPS
# assay: Tdp1 gel-based assay with recombinant human Tdp1 and N14Y DNA substrate
# Format: biochemical
assayReadout: IC50

// worked examples, IC50 included
Param readout= IC50; system= Tdp1 (Homo sapiens, UniProt Q9NUW8); entry= O=C1NC(=O)/C(=C/c2ccc(O)c(O)c2)S1 ; returns value. 111 to 333 µM

Param readout= IC50; system= Tdp1 (Homo sapiens, UniProt Q9NUW8); entry= O=C1/C(=C/c2ccc3[nH]ccc3c2)NC(=S)N1c1ccccc1 ; returns value. 111 to 333 µM

Further cases:
Param readout= IC50; system= Tdp1 (Homo sapiens, UniProt Q9NUW8); entry= O=C1NC(=S)N(Cc2ccccc2)/C1=C\c1ccc(F)cc1 ; returns value. 111 to 333 µM

Ref: paper PMC7479925
